# Test system: Escherichia coli TOP10
# Protocol Summary: shrunken log2 fold change of peptide-encoding DNA abundance (4.5 h post-induction vs induction); higher = less antimicrobial activity (less host growth inhibition)
# Condition Parameters: time post-induction: 4.5 h; library: site-saturation at positions 5, 18, 19, 20
Reported Endpoint: shrunken log2 fold change
I only need the number, thanks.

The examples below pair each entry with its known result.
Report shrunken log2 fold change for RRIRSRPPRLPRPRPRPRGVPRP 0.749

Report shrunken log2 fold change for RRIRGRPPRLPRPRPRPTRTPRP 1.32

Report shrunken log2 fold change for RRIRMRPPRLPRPRPRPCPHPRP 0.0961

Report shrunken log2 fold change for RRIRDRPPRLPRPRPRPYWAPRP -0.0312

Report shrunken log2 fold change for RRIRLRPPRLPRPRPRPDCGPRP 0.0932

Report shrunken log2 fold change for RRIRGRPPRLPRPRPRPDVWPRP 1.36

More entries:
Report shrunken log2 fold change for RRIRWRPPRLPRPRPRPWYNPRP -0.119

Report shrunken log2 fold change for RRIRRRPPRLPRPRPRPLVTPRP -0.0631

Report shrunken log2 fold change for RRIRIRPPRLPRPRPRPLHPPRP -0.0764

Report shrunken log2 fold change for RRIRFRPPRLPRPRPRPEITPRP -0.208

Report shrunken log2 fold change for RRIRARPPRLPRPRPRPANEPRP 0.173

Report shrunken log2 fold change for RRIRPRPPRLPRPRPRPIFPPRP 0.0704

Report shrunken log2 fold change for RRIRIRPPRLPRPRPRPIVEPRP 0.0786

Report shrunken log2 fold change for RRIRHRPPRLPRPRPRPPPQPRP 0.844

Report shrunken log2 fold change for RRIRTRPPRLPRPRPRPTGWPRP 0.511

====

# Tested on: Escherichia coli TOP10
# Protocol Summary: shrunken log2 fold change of peptide-encoding DNA abundance (4.5 h post-induction vs induction); higher = less antimicrobial activity (less host growth inhibition)
# Condition Parameters: time post-induction: 4.5 h; library: site-saturation at positions 5, 18, 19, 20
Below, each of the sequences is paired with its reported shrunken log2 fold change value.
I only need the number, thanks.

Report shrunken log2 fold change for RRIRLRPPRLPRPRPRPDKYPRP -0.769

Report shrunken log2 fold change for RRIRWRPPRLPRPRPRPTVLPRP 0.188

Report shrunken log2 fold change for RRIRERPPRLPRPRPRPTNHPRP -0.472

Report shrunken log2 fold change for RRIRSRPPRLPRPRPRPIYTPRP -0.548

With those in mind, consider the next sequence.
Report shrunken log2 fold change for RRIRRRPPRLPRPRPRPQGDPRP 0.0133

====

# System: Escherichia coli TOP10
# Protocol Summary: shrunken log2 fold change of peptide-encoding DNA abundance (4.5 h post-induction vs induction); higher = less antimicrobial activity (less host growth inhibition)
# Condition Parameters: time post-induction: 4.5 h; library: site-saturation at positions 5, 18, 19, 20
// bucketize shrunken log2 fold change: bucket A = under -0.2, bucket B = from -0.2 up to 0.2, bucket C = 0.2 and over

Examples with answers:
Hi, small favor: classify RRIRSRPPRLPRPRPRPWTIPRP by its shrunken log2 fold change when you get a moment. bucket B

Hi, small favor: classify RRIRNRPPRLPRPRPRPWMGPRP by its shrunken log2 fold change when you get a moment. bucket A

Hi, small favor: classify RRIRTRPPRLPRPRPRPYTRPRP by its shrunken log2 fold change when you get a moment. bucket B

Hi, small favor: classify RRIRFRPPRLPRPRPRPMQVPRP by its shrunken log2 fold change when you get a moment. bucket A

Hi, small favor: classify RRIRVRPPRLPRPRPRPWNMPRP by its shrunken log2 fold change when you get a moment. bucket B

Hi, small favor: classify RRIRGRPPRLPRPRPRPQFIPRP by its shrunken log2 fold change when you get a moment. bucket B

Hi, small favor: classify RRIRWRPPRLPRPRPRPTNMPRP by its shrunken log2 fold change when you get a moment. bucket B

Hi, small favor: classify RRIRRRPPRLPRPRPRPIVDPRP by its shrunken log2 fold change when you get a moment. bucket C

More entries:
Hi, small favor: classify RRIRDRPPRLPRPRPRPRDWPRP by its shrunken log2 fold change when you get a moment. bucket C

Hi, small favor: classify RRIRFRPPRLPRPRPRPYHHPRP by its shrunken log2 fold change when you get a moment. bucket A

Hi, small favor: classify RRIRHRPPRLPRPRPRPQTLPRP by its shrunken log2 fold change when you get a moment. bucket A

Hi, small favor: classify RRIRARPPRLPRPRPRPDPLPRP by its shrunken log2 fold change when you get a moment. bucket C

Hi, small favor: classify RRIRGRPPRLPRPRPRPFYWPRP by its shrunken log2 fold change when you get a moment. bucket B

Hi, small favor: classify RRIRKRPPRLPRPRPRPVPGPRP by its shrunken log2 fold change when you get a moment. bucket C

Hi, small favor: classify RRIRVRPPRLPRPRPRPQVQPRP by its shrunken log2 fold change when you get a moment. bucket A

====

# System: Escherichia coli TOP10
# Protocol Summary: shrunken log2 fold change of peptide-encoding DNA abundance (4.5 h post-induction vs induction); higher = less antimicrobial activity (less host growth inhibition)
# Condition Parameters: time post-induction: 4.5 h; library: site-saturation at positions 5, 18, 19, 20
Below, each of the sequences is paired with its reported shrunken log2 fold change value.
I only need the number, thanks.

The examples below pair each entry with its known result.
Report shrunken log2 fold change for RRIRPRPPRLPRPRPRPMCAPRP 0.159

Report shrunken log2 fold change for RRIRFRPPRLPRPRPRPFNFPRP -1.17

Report shrunken log2 fold change for RRIRVRPPRLPRPRPRPSRLPRP 0.599

Report shrunken log2 fold change for RRIRNRPPRLPRPRPRPEPRPRP 0.635

More entries:
Report shrunken log2 fold change for RRIRFRPPRLPRPRPRPFNWPRP -0.975

Report shrunken log2 fold change for RRIRCRPPRLPRPRPRPVGCPRP 0.204

Report shrunken log2 fold change for RRIRIRPPRLPRPRPRPHFMPRP -0.685

Report shrunken log2 fold change for RRIRVRPPRLPRPRPRPMMTPRP 0.0496

====

# System: Escherichia coli TOP10
# Protocol Summary: shrunken log2 fold change of peptide-encoding DNA abundance (4.5 h post-induction vs induction); higher = less antimicrobial activity (less host growth inhibition)
# Condition Parameters: time post-induction: 4.5 h; library: site-saturation at positions 5, 18, 19, 20
Decide using shrunken log2 fold change: a value greater than or equal to -0.006 is 1, a smaller one is -1.

Could you tell me if the measured shrunken log2 fold change of RRIRFRPPRLPRPRPRPMLLPRP reaches -0.006 or more? -1

API: the following record is the query input.
Could you tell me if the measured shrunken log2 fold change of RRIRRRPPRLPRPRPRPSHNPRP reaches -0.006 or more? -1

====

# Tested on: Escherichia coli TOP10;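 further: peptides expressed intracellularly from a pBAD plasmid library in pooled LB shake-flask culture, induced with 0.3% L-arabinose, DNA abundance read by NGS, three biological replicates, DESeq2 with apeglm shrinkage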
# Protocol Summary: shrunken log2 fold change of peptide-encoding DNA abundance (4.5 h post-induction vs induction); higher = less antimicrobial activity (less host growth inhibition)
# Condition Parameters: time post-induction: 4.5 h; library: site-saturation at positions 5, 18, 19, 20
// bucketize shrunken log2 fold change: band A: < -0.07; band B: ≥ -0.07 and < 0.1; band C: ≥ 0.1

Hi, small favor: classify RRIRVRPPRLPRPRPRPIVIPRP by its shrunken log2 fold change when you get a moment. band B

Hi, small favor: classify RRIRIRPPRLPRPRPRPLPYPRP by its shrunken log2 fold change when you get a moment. band A

Hi, small favor: classify RRIRARPPRLPRPRPRPHFDPRP by its shrunken log2 fold change when you get a moment. band C

Hi, small favor: classify RRIRDRPPRLPRPRPRPCDQPRP by its shrunken log2 fold change when you get a moment. band B

More entries:
Hi, small favor: classify RRIRFRPPRLPRPRPRPDVLPRP by its shrunken log2 fold change when you get a moment. band A

Hi, small favor: classify RRIRERPPRLPRPRPRPARFPRP by its shrunken log2 fold change when you get a moment. band C

Hi, small favor: classify RRIRARPPRLPRPRPRPAMMPRP by its shrunken log2 fold change when you get a moment. band C

Hi, small favor: classify RRIRTRPPRLPRPRPRPASHPRP by its shrunken log2 fold change when you get a moment. band A

Hi, small favor: classify RRIRRRPPRLPRPRPRPRPYPRP by its shrunken log2 fold change when you get a moment. band C

Hi, small favor: classify RRIRARPPRLPRPRPRPQTSPRP by its shrunken log2 fold change when you get a moment. band B

Hi, small favor: classify RRIRQRPPRLPRPRPRPKDHPRP by its shrunken log2 fold change when you get a moment. band A

Hi, small favor: classify RRIRHRPPRLPRPRPRPCPNPRP by its shrunken log2 fold change when you get a moment. band B

Hi, small favor: classify RRIRMRPPRLPRPRPRPKENPRP by its shrunken log2 fold change when you get a moment. band C

Hi, small favor: classify RRIRFRPPRLPRPRPRPKYVPRP by its shrunken log2 fold change when you get a moment. band A

Hi, small favor: classify RRIRCRPPRLPRPRPRPAEHPRP by its shrunken log2 fold change when you get a moment. band B

Hi, small favor: classify RRIRWRPPRLPRPRPRPGVGPRP by its shrunken log2 fold change when you get a moment. band C

Hi, small favor: classify RRIRFRPPRLPRPRPRPHREPRP by its shrunken log2 fold change when you get a moment. band B

Hi, small favor: classify RRIRERPPRLPRPRPRPYHWPRP by its shrunken log2 fold change when you get a moment. band B

Hi, small favor: classify RRIRPRPPRLPRPRPRPPIGPRP by its shrunken log2 fold change when you get a moment. band C

Hi, small favor: classify RRIRHRPPRLPRPRPRPYMGPRP by its shrunken log2 fold change when you get a moment. band A

Hi, small favor: classify RRIRHRPPRLPRPRPRPYNHPRP by its shrunken log2 fold change when you get a moment. band A

Hi, small favor: classify RRIRGRPPRLPRPRPRPCVTPRP by its shrunken log2 fold change when you get a moment. band C

Hi, small favor: classify RRIRKRPPRLPRPRPRPQIDPRP by its shrunken log2 fold change when you get a moment. band B

Hi, small favor: classify RRIRYRPPRLPRPRPRPAGYPRP by its shrunken log2 fold change when you get a moment. band B

Hi, small favor: classify RRIRMRPPRLPRPRPRPAFCPRP by its shrunken log2 fold change when you get a moment. band C

Hi, small favor: classify RRIRSRPPRLPRPRPRPDEIPRP by its shrunken log2 fold change when you get a moment. band C
